experiment: activity coefficient (dimensionless); of the first substance listed, at infinite dilution; xn = mol fraction of the nth substance listed; conditions: 332.45 K; 101 kPa; Liquid; Chromatography; x1 = 0
The label 1 is reserved for activity coefficient strictly under 2; -1 covers values equal to or above it.

Reference set (5 entries):
- compound: "CCC=O [propanal] + CCn1cc[n+](C)c1.CS(=O)(=O)[O-]"
  label: -1
- compound: "CCOCC [diethyl ether] + CCn1cc[n+](C)c1.CS(=O)(=O)[O-]"
  label: -1
- compound: "ClCCl [dichloromethane] + CCn1cc[n+](C)c1.CS(=O)(=O)[O-]"
  label: 1
- compound: "CCC[N+](=O)[O-] [1-nitropropane] + CCn1cc[n+](C)c1.CS(=O)(=O)[O-]"
  label: 1
- compound: "C1COCCO1 [1,4-dioxane] + CCn1cc[n+](C)c1.CS(=O)(=O)[O-]"
  label: -1

A record lists C=O [methanal] + CCn1cc[n+](C)c1.CS(=O)(=O)[O-] . Is its activity coefficient below 2? 1
